Assay: small-molecule microarray binders of probe aLefty2, primary screen, biochemical, biotinylated probe, 635/667 nm fluorescence (AID 1094);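 note: score merges spot fluorescence near 667 nm with spot signal-to-noise ratio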
Conditions: higher = more signal
composite z-score overview

COMPOUND: CCOC(=O)C[C@H]1[C@H](OC(=O)c2cc3ccccc3oc2=O)[C@@H](NC(=O)c2ccc(-c3ccccc3)cc2)c2cc(OCCCO)ccc2N1C(=O)c1ccccc1
composite z-score: -0.0367
--
COMPOUND: CC(C)C[C@@H]1NC(=O)[C@@H]2C[C@H](C(=O)NCCCCCN)[C@H](c3ccc(O)cc3)N2C1=O
composite z-score: -0.109
--
COMPOUND: COc1ccc([Si](C)(C)[C@H]2[C@H](CCn3cc([C@H](O)c4ccccc4)nn3)O[C@@]3(C(=O)N(Cc4ccc(N5C(=O)c6cccc7cccc5c67)cc4)c4ccccc43)[C@@H]2C)cc1
composite z-score: -0.0674
--
COMPOUND: Cc1ccc(S[C@]2(C(=O)NCC(F)(F)F)CC(=O)N(Cc3ccccc3)[C@@H]2c2ccc(CO)cc2I)cc1
composite z-score: 0.496
--
COMPOUND: O=C1O[C@H](c2ccccc2)[C@H](c2ccccc2)N2[C@H]1[C@@H](C(=O)NC[C@H](O)c1ccccc1)[C@]1(C(=O)Nc3ccc(C#CCCO)cc31)[C@H]2c1ccc(OCCO)cc1
composite z-score: -0.122
--
COMPOUND: CC(CO)N1C(=O)[C@@H]2[C@H]3C(=O)OCC=C[C@H]3OC23C=CCN(Cc2ccccc2)C(=O)[C@@H]13 (some centres undefined)
composite z-score: -0.219
--
COMPOUND: COC(=O)c1c(CC[C@@H](CO)NC(=O)N[C@H](Cn2cc(C3(O)CCCCC3)nn2)C(C)C)oc(C(C)=O)c1C(=O)OC
composite z-score: -0.0437
--
COMPOUND: COC(=O)c1cn(C[C@@H](Cc2ccccc2)NC(=O)N[C@H](CO)CCc2oc(C(C)=O)c(C(=O)OC)c2C(=O)OC)nn1
composite z-score: -0.147
--
COMPOUND: O=C(NCC(F)(F)F)[C@@H]1c2ccccc2C(=O)N(Cc2cc(F)cc(C(F)(F)F)c2)[C@H]1c1ccc(CO)cc1
composite z-score: -0.0998
--
COMPOUND: O[C@@H](Cc1ccccc1)[C@@H](/C=C/C1CC1)N(CC#Cc1ccccc1)Cc1cccc(Cl)c1
composite z-score: 0.146
--
COMPOUND: CCC[C@@H]1C[C@@]1(CCC)[C@@H](NC(=O)OCc1ccccc1)c1ccc(-c2ccccc2)cc1
composite z-score: 0.239
--
COMPOUND: O=C1C2C=CC(C(O)c3ccccc3)N(Nc3ccccc3F)C2C(=O)N1c1ccccc1 (centres undefined)
composite z-score: -0.0381
--
COMPOUND: CCCCCCc1nc(C2CC2)cc2c1[Si](C(C)C)(C(C)C)O[C@H]2c1ccccc1
composite z-score: -0.0798
--
COMPOUND: COc1ccc([Si](C)(C)[C@@H]2[C@@H](CCn3cc([C@H](O)c4ccccc4)nn3)O[C@]3(C(=O)N(Cc4ccc(N5CCC5=O)cc4)c4ccccc43)[C@H]2C)cc1
composite z-score: -0.177

* * *

Test: RPMI8226 myeloma cell viability, profiling panel, resazurin fluorescence, basal, 24 h, PK04 Diversity Set (AID 1180);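 note: RPMI8826 multiple myeloma cell line at 5000 cells per well; test concentration not given here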
Conditions: higher = more signal
Label False if z-score falls below -0.3; label True in every other case.

MOLECULE: C[N+](C)(C)CCCC[C@@H]1NC(=O)[C@H]2C[C@@H](C(=O)NCCCCCCN)[C@@H](c3ccc(O)cc3)N2C1=O
CLASS_ASSIGNMENT: True
--
MOLECULE: Cc1cc(C)cc(N2C(=O)CSC2c2cccc([N+](=O)[O-])c2)c1 (centres undefined)
CLASS_ASSIGNMENT: False
--
MOLECULE: CCOC(=O)C1=CC[C@@H](c2ccc(OCc3ccccc3)c(OC)c2)N(S(=O)(=O)c2ccc(C)cc2)[C@H]1c1ccc(SC)cc1
CLASS_ASSIGNMENT: False
--
MOLECULE: NCCCCCCNC(=O)[C@@H]1C[C@@H]2C(=O)N[C@@H](CCCCN)C(=O)N2[C@@H]1c1cccc(OCCO)c1
CLASS_ASSIGNMENT: True
--
MOLECULE: C=CCOC(=O)[C@H]1[C@@H]2C(=O)O[C@@H](c3ccccc3)[C@@H](c3ccccc3)N2[C@@H](c2ccc(OCCOC(=O)[C@H]3C[C@H]4C(=O)N[C@@H](CC(C)C)C(=O)N4[C@H]3c3cccc(OCCO)c3)cc2)[C@]12C(=O)Nc1ccc(I)cc12
CLASS_ASSIGNMENT: False
--
MOLECULE: C=C(/C(=C/C[C@H](OC(C)=O)c1cccc(OCCO)c1)c1cnc2ccccc2c1)C(C)C
CLASS_ASSIGNMENT: True
--
MOLECULE: CCOC(=O)[C@H]1[C@@H]2C(=O)N3CCC[C@H]3[C@H](O[Si](C(C)C)(C(C)C)C(C)C)[C@H]2C=C2CCN(S(=O)(=O)c3ccc(C)cc3)C[C@H]21
CLASS_ASSIGNMENT: False
--
MOLECULE: CCOC(=O)C1=CC[C@@H](c2ccccc2C(F)(F)F)N(S(=O)(=O)c2ccc(C)cc2)[C@H]1c1ccc(C#N)cc1
CLASS_ASSIGNMENT: False
--
MOLECULE: COCCOC(=O)N1C(=O)[C@@]2(c3cc(C#CC4=CCCCC4)ccc31)[C@H](C(=O)N1CCCCCCC1)[C@H]1C(=O)O[C@H](c3ccccc3)[C@H](c3ccccc3)N1[C@@H]2c1ccc(O)cc1
CLASS_ASSIGNMENT: True
--
MOLECULE: CCCNC(=O)[C@@]1(c2ccc([N+](=O)[O-])cc2)CC(=O)N(C2CCCCC2)[C@@H]1c1ccc(CO)cc1
CLASS_ASSIGNMENT: True
--
MOLECULE: C=C(COC)/C(=C/C[C@H](OC(=O)c1ccncc1)c1ccccc1OCCO)c1cnc2ccccc2c1
CLASS_ASSIGNMENT: True
--
MOLECULE: COC(=O)c1nc2oc1CC[C@@H](CO)NC(=O)N(C)Cc1cnnn1C[C@H](Cc1ccccc1)NC2=O
CLASS_ASSIGNMENT: True
--
MOLECULE: CCCCCCc1nc(-c2cc(C)c(OC)c(C)c2)c(C)c2c1[Si](C(C)C)(C(C)C)OC2
CLASS_ASSIGNMENT: True
--
MOLECULE: COCCOC(=O)N1C(=O)[C@@]2(c3cc(C#CC4=CCCCC4)ccc31)[C@H](c1ccccc1OCCO)N1[C@H](c3ccccc3)[C@H](c3ccccc3)OC(=O)[C@H]1[C@@H]2C(=O)Nc1nc2ccccc2s1
CLASS_ASSIGNMENT: False
